# System: SN12C renal
# method_notes: NCI-60 one-dose screen, 48 h (100 = growth as untreated, 0 = no growth, -100 = all killed)
# condition_description: 10 µM unless noted
The panel holds about 83,000 compounds, 20% with a hit somewhere; the sample as a whole holds those more often.
measured_endpoint: growth (%)
Express it in %; write the number only.

molecule	growth, %
O=C1c2ccccc2C(=O)c2c1oc1oc3c(c(=O)c21)c(=O)n(-c1ccccc1)c1ccccc31	97.7

Fill in the blank: the reported growth of Oc1ccc(N=Cc2ccccc2)cc1 is ____.
96.5

Same for COC1=CC(c2ccc[nH]2)=N/C1=C\c1[nH]c(C)c(C(=O)CCCCC(=O)Oc2ccc3c(c2)CCC2C3CC[C@]3(C)[C@@H](O)CC[C@@H]23)c1C (stereo not given in full)
58.8

Try this molecule next: CN(C)C/C=C/C(=O)Nc1cc2c(Nc3cccc(Cl)c3F)ncnc2cc1OCCOC(F)F
12.6

// query: COc1cc(OC)cc(-c2n[nH]nc2-c2ccc3c(c2)OCO3)c1
49.1

----------
# Tested on: SNB-75 CNS
# method_notes: NCI-60 one-dose screen, 48 h (100 = growth as untreated, 0 = no growth, -100 = all killed)
# condition_description: 10 µM unless noted
This is part of a sample that, as a whole, favours compounds with a hit. Of some 83,000 tested, about 20% had one in any assay.
Listed below: growth values for each entry.
Number in %, nothing else.

Some compounds with known growth results, for comparison:
smiles_repr	units	growth
O=C(O)c1ccc(-n2cc(CNc3ccc(C(F)(F)F)cc3)c(-c3ccccc3)n2)cc1	%	92.1
CC(=O)OC[Si](C)(C)c1ccccc1	%	89.8

# input compound: Nc1ccc(S(=O)(=O)c2ccc(Cl)cc2)cc1 ; wanted: its growth
79.7

----------
growth for assorted compounds
# Test system: NCI-H522 lung
# method_notes: NCI-60 one-dose screen, 48 h (100 = growth as untreated, 0 = no growth, -100 = all killed)
# condition_description: 10 µM unless noted
This is part of a sample that, as a whole, favours compounds with a hit. Of some 83,000 tested, about 20% had one in any assay.
Quick note: give the figure in %, leave out the unit.

// solved cases for growth follow
smiles_repr	units	growth
O=C(NCCCN1CCN(CCCNC(=O)C2CCCCC2)CC1)C1CCCCC1	%	95
Nc1c(C(=O)Nc2cccc(Cl)c2Cl)sc2nc3c(cc12)C(=O)CCC3	%	12.5
O=C(O)c1cn(C2CC2)c2cc(N3CCN(S(=O)(=O)c4ccc(Cl)c(Cl)c4)CC3)c(F)cc2c1=O	%	-21.4

Consider the record given below.
Any idea what its growth is? The compound is O=S(=O)(NCCCNc1cc(-c2cn(-c3ccccc3)nc2-c2cccc(O)c2)ccn1)c1ccc(Cl)cc1
20.2

----------
# Tested on: HOP-92 NSCLC
# method_notes: NCI-60 one-dose screen, 48 h
# condition_description: 10 µM unless noted
Compounds without any hit were thinned out: in the full panel of roughly 83,000, 20% have a hit. Active and inactive are the calls of the source. Rule for the calls: active = growth percent below 10; inactive = the rest.
Return exactly one item of true = active, false = inactive

Solved entries:
molecule	class_assignment
Cc1cc(Nc2nc(-c3ccncc3)nc3ccccc23)n[nH]1	false
CN(C)c1ncc(-c2ccc(C(F)(F)F)cc2)c(NC2CCCCCC2)n1	true
NC(=O)c1c(NC(=O)c2ccc(OCC3CCCO3)cc2)sc2c1CCCC2 (centres undefined)	false

GET /call?item= O=S(=O)(NCCCNc1cc(-c2cn(-c3ccccc3)nc2-c2cccc(O)c2)ccn1)c1cccc2ccccc12 returns the recorded outcome of this test.
false
